Hey, just so you know, these numbers are from patent US20230357429A1.

molecular target: T1, Peptide-1 (cysteine pairing not given here; also: biotinylated (site not given here)); test: ELISA, Fab on captured biotin-peptide
T1 peptide: IDFCAMYQWPICDT
Where no end group is shown, it is not given here.
For each entry below, report its EC50 value.
Express the result in nM but write the number alone.

Using the record for TBD-11 (HC R98A) (Fab, V domains shown, Fab; also called HC R98A mutant) VH: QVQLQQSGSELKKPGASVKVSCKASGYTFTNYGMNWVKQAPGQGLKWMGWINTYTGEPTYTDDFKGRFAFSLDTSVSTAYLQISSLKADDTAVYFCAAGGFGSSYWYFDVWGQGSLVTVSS VL: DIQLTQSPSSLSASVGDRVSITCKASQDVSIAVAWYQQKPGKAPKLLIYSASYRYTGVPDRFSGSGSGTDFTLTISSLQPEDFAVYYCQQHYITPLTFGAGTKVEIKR , state its measured EC50.
292

Using the record for TBD-6 (LC I93A) (Fab, V domains shown, Fab; also called LC I93A mutant) VH: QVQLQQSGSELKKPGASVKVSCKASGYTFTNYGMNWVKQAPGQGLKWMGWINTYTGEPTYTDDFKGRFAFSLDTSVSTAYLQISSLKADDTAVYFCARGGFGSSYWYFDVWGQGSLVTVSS VL: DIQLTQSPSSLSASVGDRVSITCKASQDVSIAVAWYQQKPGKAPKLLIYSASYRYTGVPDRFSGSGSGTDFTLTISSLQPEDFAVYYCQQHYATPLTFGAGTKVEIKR , state its measured EC50.
14.8

Using the record for TBD-17 (HC S104A) (Fab, V domains shown, Fab; also called HC S104A mutant) VH: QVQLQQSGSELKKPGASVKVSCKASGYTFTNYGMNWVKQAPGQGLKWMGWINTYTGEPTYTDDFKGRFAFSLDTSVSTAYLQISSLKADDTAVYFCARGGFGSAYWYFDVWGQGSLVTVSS VL: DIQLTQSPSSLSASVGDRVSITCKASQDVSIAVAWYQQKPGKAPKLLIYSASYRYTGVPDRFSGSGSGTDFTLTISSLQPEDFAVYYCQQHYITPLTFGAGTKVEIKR , state its measured EC50.
7.3

Using the record for TBD-22 (HC D109A) (Fab, V domains shown, Fab; also called HC D109A mutant) VH: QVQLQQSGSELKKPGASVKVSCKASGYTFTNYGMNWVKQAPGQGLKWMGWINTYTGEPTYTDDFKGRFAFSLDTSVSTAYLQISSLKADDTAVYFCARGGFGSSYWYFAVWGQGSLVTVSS VL: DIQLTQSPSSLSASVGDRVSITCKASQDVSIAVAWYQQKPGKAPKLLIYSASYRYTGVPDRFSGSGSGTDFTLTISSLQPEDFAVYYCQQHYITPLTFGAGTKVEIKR , state its measured EC50.
1

Using the record for TBD-21 (HC F108A) (Fab, V domains shown, Fab; also called HC F108A mutant) VH: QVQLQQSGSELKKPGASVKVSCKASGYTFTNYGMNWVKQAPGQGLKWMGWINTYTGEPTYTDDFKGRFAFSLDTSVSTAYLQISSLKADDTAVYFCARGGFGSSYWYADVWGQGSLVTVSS VL: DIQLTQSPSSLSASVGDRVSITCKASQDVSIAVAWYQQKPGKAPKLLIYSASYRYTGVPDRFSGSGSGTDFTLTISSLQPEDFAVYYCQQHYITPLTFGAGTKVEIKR , state its measured EC50.
13.5

Using the record for TBD-1 wt (Fab, V domains shown, Fab; the heavy chain entry is VH-CH1; also called wild-type anti-TROP2 Fab (hRS7); TROP2 Fab) VH: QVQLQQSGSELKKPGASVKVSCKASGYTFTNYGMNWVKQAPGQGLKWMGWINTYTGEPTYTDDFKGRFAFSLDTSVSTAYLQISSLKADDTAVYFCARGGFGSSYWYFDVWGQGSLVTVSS VL: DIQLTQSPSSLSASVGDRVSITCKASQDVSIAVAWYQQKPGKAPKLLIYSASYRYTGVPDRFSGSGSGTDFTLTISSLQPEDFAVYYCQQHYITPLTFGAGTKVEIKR , state its measured EC50.
22.5
